# run.description: Human HepG2 cell viability assay in 384 well format
# Assay type: toxicity, cell-based
# Parameters: dose 125 nL, time 70.5 hour; concentration not given beside the values
# stated.conditions: HepG2 cells, read-out: Inhibition
Examples of compounds with documented cytotoxicity at 70.5 h follow.
Report only the number, with the unit % understood.

# compound, unit.descriptor, cytotoxicity at 70.5 h
data = [
    ("OCCOc1ccc(NCc2cccnc2)cn1", "%", 24.6),
    ("CC1=Nc2c(c(=O)[nH]n2C(C)C)C(c2ccccc2)S1 (configuration not stated)", "%", -3.86),
    ("O=C(NCCNC1CCCCC1)c1cccs1", "%", -6.1),
    ("CN1CCNC(=O)C12CCN(C(=O)c1ccc3[nH]c(=O)[nH]c3c1)CC2", "%", -7.66),
    ("Cc1csc(NCC(=O)c2c[nH]c3ccccc23)n1", "%", 3.37),
]

*Q* Recorded cytotoxicity at 70.5 h for O=C(c1cnc(-c2ccccc2)s1)N1CCOC2(CCCC2)C1 , please?
*A* -3.97

*Q* Name the reported cytotoxicity at 70.5 h value associated with the compound CCN(CCOC)C(=O)c1cc(COc2ccc3c(c2)CCCC3)on1
*A* -3.35

*Q* Reported cytotoxicity at 70.5 h, compound O=C(COc1coc(CN2CCOCC2)cc1=O)Nc1ccccc1F : ____
*A* -12

*Q* Which value of cytotoxicity at 70.5 h has been reported for CN1CCN(c2nsc(-c3ccccc3)c2C#N)CC1 in the records?
*A* -2.35

*Q* Given the compound CCC(C(=O)NCc1ccccn1)N(c1cccc(C)c1)S(C)(=O)=O (configuration not stated) , what is its reported cytotoxicity at 70.5 h?
*A* -1.44

*Q* For the compound COc1ccc2c(c1)CC(C1CCOCC1)N(C(=O)c1ccnn1C)C2 (configuration not stated) , what cytotoxicity at 70.5 h is on record?
*A* -0.842

*Q* Recorded cytotoxicity at 70.5 h for CC(=O)N(Cc1noc(C)n1)C1CCN(Cc2ccccc2C#N)C1 (configuration not stated) , please?
*A* -5.45

*Q* Name the recorded cytotoxicity at 70.5 h for FC(F)(F)c1nc(C2CCNCC2)no1 .
*A* -2.97

*Q* Please look up its cytotoxicity at 70.5 h: O=c1c(NCc2ccncc2)c(NCC(O)CN2CCOCC2)c1=O (configuration not stated)
*A* -17.9

*Q* Report cytotoxicity at 70.5 h for CC1(C)CN(S(=O)(=O)N2CCCC2)CC1c1ccccc1 (configuration not stated) please.
*A* -6.08

*Q* So what does the record say about cytotoxicity at 70.5 h for COC(=O)c1ccc(CN(C)C(=O)c2cnsn2)cc1 ?
*A* -14.6

*Q* Find the recorded cytotoxicity at 70.5 h belonging to COc1ccc(COCC(O)CNC(=O)c2cnc(C)cn2)cc1 (configuration not stated) and report it.
*A* -8.25

*Q* Would you mind telling me what cytotoxicity at 70.5 h value was observed for Cc1cccc(CN2CCC(c3nccn3CC(N)=O)CC2)n1 ?
*A* 22.7

*Q* GET /values?readout=cytotoxicity at 70.5 h&item= CN(C)c1cc2c(nn1)CCN(C(=O)Cc1ccc3c(c1)CCO3)C2
*A* -5.69

*Q* Data request, read-out cytotoxicity at 70.5 h, for CCN1C(=O)CC[C@]12CC[C@@H](NC(=O)NCc1cccnc1)CC2
*A* -4.88

*Q* cytotoxicity at 70.5 h for CNS(=O)(=O)c1cccc(CNC(=O)CCc2ccsc2)c1 ?
*A* -4.01

*Q* What value of measured cytotoxicity at 70.5 h is listed for CCc1nc(C(=O)N2CC(C(C)C)Nc3ccccc32)c[nH]1 (configuration not stated) ?
*A* -7.98
